system.under.test: OsWRKY34 (Oryza sativa, UniProt Q0JBA9 1-250)
Sequence (Q0JBA9 entry or part of it): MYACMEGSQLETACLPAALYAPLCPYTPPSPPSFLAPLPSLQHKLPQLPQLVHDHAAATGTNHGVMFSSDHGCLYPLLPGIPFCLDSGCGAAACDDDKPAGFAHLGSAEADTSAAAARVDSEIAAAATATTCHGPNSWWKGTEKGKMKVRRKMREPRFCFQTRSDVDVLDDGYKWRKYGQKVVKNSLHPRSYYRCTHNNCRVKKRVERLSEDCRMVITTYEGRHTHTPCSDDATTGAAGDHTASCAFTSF
procedure.text: protein-binding microarray (RPBM); PBS, 2% BSA, 51.3 ng/ul salmon testes DNA, 50 uM zinc acetate, 200 nM TF, 25 C, 1 h; high values mean tight binding
experimental.context: protein: recombinant; tags: N-terminal polyhistidine and DsRed monomer fusion (pET32a); label: CyDye5-dUTP incorporated in the synthesized complementary strand; 3' TTTTT single-stranded linker to array surface; dsDNA, one strand shown
The full ranking holds about 68,000 sequences; the median of “fluorescence intensity (a.u.)” is about 9,100, and the highest 2% start at about 16,000. For the sample, the highest values were picked, then their nearest neighbours and some sequences at random.
observed.property: binding signal

CTTGGGGAAGGCGGCGGGTGTCGGGGAGGGCGAGGGTATCCGGAGTCACCTAGTGCAG :: 18000 fluorescence intensity (a.u.)
TATGGGTAGGTTCTTGTTCTATGGGGCAGGGGTCTTAAAGCGGAGTCACCTAGTGCAG :: 17100 fluorescence intensity (a.u.)
CTGTGGTGGTGTGCATACGGGTTGGGGTGGAGGGCTGCTCCGGAGTCACCTAGTGCAG :: 17900 fluorescence intensity (a.u.)
TGAATTGGGAAATTTCGGTGTTTTTTTTCTTCTTTTTTTTCGGAGTCACCTAGTGCAG :: 8740 fluorescence intensity (a.u.)
CTCTCCTCCTCCGTTCCTGACTCCACCACTCACATTCATTCGGAGTCACCTAGTGCAG :: 13200 fluorescence intensity (a.u.)
TTGGCGCGCGGTTGGTGGGGCGGTGGTGGTGGTGGTGCCTCGGAGTCACCTAGTGCAG :: 17400 fluorescence intensity (a.u.)
GTGGCTGCGTGTGGTGGCGTTGCACGGCTCGGGTGGGCTCCGGAGTCACCTAGTGCAG :: 8660 fluorescence intensity (a.u.)
GGGGCGATTTTTTTTTTTTTTTAGAATTGCGAGATAGGGGCGGAGTCACCTAGTGCAG :: 10700 fluorescence intensity (a.u.)
TTAAATATTTGAGGGGTCGATATTTCTGGTATTGGTATTACGGAGTCACCTAGTGCAG :: 10500 fluorescence intensity (a.u.)
GCGGGCTGTTTTTTTCTTGCGGTTTGGTTTGGGATTTCTGCGGAGTCACCTAGTGCAG :: 17400 fluorescence intensity (a.u.)
GTTAACTTTTGGTAGTTGCAGGGGTTCTATAGGTGGGCAGCGGAGTCACCTAGTGCAG :: 8640 fluorescence intensity (a.u.)
AGCAGTTGTATTGTTGTGAAATTTAATTTGCTCTTTGACCCGGAGTCACCTAGTGCAG :: 8200 fluorescence intensity (a.u.)
TCTTCTTCCATGGTCTTTTCTAGATAAGGCTCTCTAATGTCGGAGTCACCTAGTGCAG :: 8620 fluorescence intensity (a.u.)
CTTTTATTTAACGGATGTTTCACCATGGTCTTTACTGTAGCGGAGTCACCTAGTGCAG :: 9320 fluorescence intensity (a.u.)
CCGTCGTGCTGCGCCCTTCAATTTGTTGGTCTCGCTCGCCCGGAGTCACCTAGTGCAG :: 8490 fluorescence intensity (a.u.)
GCCGTATTTGTTTTTTTGGGATTTGGGGTTTGGATACTTGCGGAGTCACCTAGTGCAG :: 18700 fluorescence intensity (a.u.)
AGTCTGGCTTGCACATCTGCTGTTTACAACACATCAAATTCGGAGTCACCTAGTGCAG :: 9810 fluorescence intensity (a.u.)
TTCTGTTTGGGTTTTGATTTGTTTCGGTTTGGCTGTTCTTCGGAGTCACCTAGTGCAG :: 10600 fluorescence intensity (a.u.)
GTTGGGGTGGAGGGCTGCTCCAGGTGAGAGGGCTGGGCATCGGAGTCACCTAGTGCAG :: 9900 fluorescence intensity (a.u.)
ATTTGGGGTTTGGATACTTGAACTTTATTTTGACTTCTGACGGAGTCACCTAGTGCAG :: 14000 fluorescence intensity (a.u.)
TTTTGGGGATAGATTTGCGCTTTTGGTGGGTGGGTTTGGGCGGAGTCACCTAGTGCAG :: 14200 fluorescence intensity (a.u.)
TTGGTGGGTGGCGCGGTGGCCGGACCTGGGGTGGTGGGCGCGGAGTCACCTAGTGCAG :: 15900 fluorescence intensity (a.u.)
TAGGGAGGGTTGTGGGGAGGGGAGCTGTGGCCGCAATGTCCGGAGTCACCTAGTGCAG :: 19400 fluorescence intensity (a.u.)
GAAGGTTGCTGTTGCTTGTTGTTGGTAGTGTCTTGTGTGCCGGAGTCACCTAGTGCAG :: 9090 fluorescence intensity (a.u.)
ACTTTCCTACACACAAACTTTCAACTTTTTCATCACATCGCGGAGTCACCTAGTGCAG :: 8900 fluorescence intensity (a.u.)
CTGGCGAGCAGAGCAGGGGAGGGGAGGGGAGGGGATCGGGCGGAGTCACCTAGTGCAG :: 14200 fluorescence intensity (a.u.)
GATTTCTTTGTTGATTTTATTGGTTTTCTCCTAATCTTGCCGGAGTCACCTAGTGCAG :: 8820 fluorescence intensity (a.u.)
GACTGGGCCGTTGACCAGACGTGTACCCCACCGGCCAGTCCGGAGTCACCTAGTGCAG :: 9290 fluorescence intensity (a.u.)
GGGCTTGTTGGGGTTGCTGTGGTAGCCGGGAGGGAGGGGACGGAGTCACCTAGTGCAG :: 28500 fluorescence intensity (a.u.)
AACTTCGCAAGAGGCATGCTCTCCAGCCTCAATTTTCATGCGGAGTCACCTAGTGCAG :: 8410 fluorescence intensity (a.u.)
CCCCAATGAATCATAGGCTCAACCTGCTCCTGCTGCAACACGGAGTCACCTAGTGCAG :: 8040 fluorescence intensity (a.u.)
TGAGGTTTTGGGTTCTTGGGCACTTCTTGTTCTAGCCAAGCGGAGTCACCTAGTGCAG :: 9900 fluorescence intensity (a.u.)
ATTAGGGATAACCGTCACTGTTTGTTGCTGTTTTTATGTTCGGAGTCACCTAGTGCAG :: 9960 fluorescence intensity (a.u.)
TGGCCGGAGCTAGGGTGGGTGGGTGGTTGGCCGCACCACCCGGAGTCACCTAGTGCAG :: 8250 fluorescence intensity (a.u.)
GTTTTGAAAGGTATTGTTGGGTAGTAATAGGCTTCATCTTCGGAGTCACCTAGTGCAG :: 10200 fluorescence intensity (a.u.)
ACCTTTTTAAATATTTGACACTGTCGACTTTTTAGCACATCGGAGTCACCTAGTGCAG :: 9730 fluorescence intensity (a.u.)
TTGTGGCAATGGCGGCGGTGGCGGTGGCGGTTGGGGTGGCCGGAGTCACCTAGTGCAG :: 11500 fluorescence intensity (a.u.)
